experimental-system: NK1 (Homo sapiens, UniProt P25103)
Sequence (P25103 whole entry): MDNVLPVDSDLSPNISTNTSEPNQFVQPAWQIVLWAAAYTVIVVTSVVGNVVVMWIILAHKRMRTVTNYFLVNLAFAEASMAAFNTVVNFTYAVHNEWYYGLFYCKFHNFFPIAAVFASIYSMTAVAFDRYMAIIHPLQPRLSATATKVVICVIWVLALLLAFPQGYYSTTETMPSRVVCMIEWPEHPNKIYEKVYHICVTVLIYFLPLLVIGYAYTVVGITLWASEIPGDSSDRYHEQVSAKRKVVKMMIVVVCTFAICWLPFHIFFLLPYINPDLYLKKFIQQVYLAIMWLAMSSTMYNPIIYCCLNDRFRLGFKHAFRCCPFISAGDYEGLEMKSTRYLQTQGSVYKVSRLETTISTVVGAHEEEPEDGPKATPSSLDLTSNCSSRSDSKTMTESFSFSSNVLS
method: Signal transduction (ST), intracellular Ca++ (FLIPR), functional NK1 antagonistic activity
Assay type: cell-based
particulars: antagonist, read-out: NK1 pIC50 (converted)
recorded-endpoint: IC50 (nM)

A. O=C(c1cc(C(F)(F)F)cc(C(F)(F)F)c1)N1CC[C@@H](N2CCC3(CCN(C(=O)C45CC6CC(CC(C6)C4)C5)CC3)CC2)C[C@H]1Cc1ccccc1
B. O=C1CCC(C(=O)N2CCC3(CC2)CCN(C2CCN(C(=O)c4cc(C(F)(F)F)cc(C(F)(F)F)c4)C(Cc4ccccc4)C2)CC3)N1 (stereo not drawn)
C. O=C(c1cnccn1)N1CCC2(CC1)CCN([C@H]1CCN(C(=O)c3cc(C(F)(F)F)cc(C(F)(F)F)c3)[C@H](Cc3ccccc3)C1)CC2
Sort key = IC50. Sort direction = ascending. Apply to the list above. Please list the labels according to the requested order.
B, C, A
(B: 38.9 nM, C: 60.3 nM, A: 347 nM)

* * *

experimental-system: NK1 (Homo sapiens)
method: Signal transduction (ST), intracellular Ca++ (FLIPR), functional NK1 antagonistic activity
Type: cell-based
particulars: antagonist, read-out: NK1 pIC50 (converted)
recorded-endpoint: IC50 (nM)

>  <compound>
O=C1CC2(CCN1Cc1ccoc1)CCN([C@H]1CCN(C(=O)c3cc(C(F)(F)F)cc(C(F)(F)F)c3)[C@H](Cc3ccccc3)C1)CC2

>  <unit-abbreviation>
nM

>  <IC50>
37.2

$$$$

A. O=C(c1cc(C(F)(F)F)cc(C(F)(F)F)c1)N1CC[C@H](N2CCC3(CC2)CCN(S(=O)(=O)c2ccc(C(F)(F)F)cc2)CC3)C[C@H]1Cc1ccccc1
B. CC1(C)OC(=O)CC1C(=O)N1CCC2(CC1)CCN([C@H]1CCN(C(=O)c3cc(C(F)(F)F)cc(C(F)(F)F)c3)[C@H](Cc3ccc(F)c(F)c3)C1)CC2 (stereo partly drawn)
C. CN1CCC=C(C(=O)N2CCC3(CC2)CCN([C@H]2CCN(C(=O)c4cc(C(F)(F)F)cc(C(F)(F)F)c4)[C@H](Cc4ccccc4)C2)CC3)C1
D. O=C(c1ccccc1Cl)N1CCC2(CC1)CCN([C@H]1CCN(C(=O)c3cc(C(F)(F)F)cc(C(F)(F)F)c3)[C@H](Cc3ccccc3)C1)CC2
E. O=C(C1=CCCCC1)N1CCC2(CC1)CCN([C@H]1CCN(C(=O)c3cc(C(F)(F)F)cc(C(F)(F)F)c3)[C@H](Cc3ccccc3)C1)CC2
Order the items by recorded IC50; the first position goes to the largest value. Please list the labels according to the requested order.
A, C, E, D, B
(A: 447 nM, C: 219 nM, E: 148 nM, D: 61.7 nM, B: 17.8 nM)

* * *

experimental-system: NK1 (Homo sapiens, UniProt P25103)
method: Signal transduction (ST), intracellular Ca++ (FLIPR), functional NK1 antagonistic activity
Type: cell-based
particulars: antagonist, read-out: NK1 pIC50 (converted)
recorded-endpoint: IC50 (nM)

Recorded results for 4 compounds are shown here.
>  <compound>
O=C(c1cc(C(F)(F)F)cc(C(F)(F)F)c1)N1CC[C@H](N2CCC3(CC2)CCN(S(=O)(=O)c2ccc(Cl)s2)CC3)C[C@H]1Cc1ccccc1 [Compound 94]

>  <unit-abbreviation>
nM

>  <test-result>
132

$$$$
>  <compound>
O=C(C(CO)c1ccccc1)N1CCC2(CC1)CCN([C@H]1CCN(C(=O)c3cc(C(F)(F)F)cc(C(F)(F)F)c3)[C@H](Cc3ccccc3)C1)CC2 (stereo partly drawn) [Compound 88]

>  <unit-abbreviation>
nM

>  <test-result>
41.7

$$$$
>  <compound>
O=C(c1cc(C(F)(F)F)cc(C(F)(F)F)c1)N1CC[C@H](N2CCC3(CC2)CCN(S(=O)(=O)C(F)(F)F)CC3)C[C@H]1Cc1ccccc1 [Compound 91]

>  <unit-abbreviation>
nM

>  <test-result>
87.1

$$$$
>  <compound>
O=C(c1cnc2ccccc2n1)N1CCC2(CC1)CCN([C@H]1CCN(C(=O)c3cc(C(F)(F)F)cc(C(F)(F)F)c3)[C@H](Cc3ccccc3)C1)CC2 [Compound 66]

>  <unit-abbreviation>
nM

>  <test-result>
66.1

$$$$

I. O=C(C=Cc1ccco1)N1CCC2(CC1)CCN([C@H]1CCN(C(=O)c3cc(C(F)(F)F)cc(C(F)(F)F)c3)[C@H](Cc3ccccc3)C1)CC2 [Compound 84]
II. O=C(c1ccsc1)N1CCC2(CC1)CCN([C@H]1CCN(C(=O)c3cc(C(F)(F)F)cc(C(F)(F)F)c3)[C@H](Cc3ccc(Cl)c(Cl)c3)C1)CC2 [Compound 133]
// task: argmin of IC50 over [ I , II ] Write down the label attached to your selection.
II

* * *

experimental-system: UniProt:P29371
Sequence (P29371 whole entry): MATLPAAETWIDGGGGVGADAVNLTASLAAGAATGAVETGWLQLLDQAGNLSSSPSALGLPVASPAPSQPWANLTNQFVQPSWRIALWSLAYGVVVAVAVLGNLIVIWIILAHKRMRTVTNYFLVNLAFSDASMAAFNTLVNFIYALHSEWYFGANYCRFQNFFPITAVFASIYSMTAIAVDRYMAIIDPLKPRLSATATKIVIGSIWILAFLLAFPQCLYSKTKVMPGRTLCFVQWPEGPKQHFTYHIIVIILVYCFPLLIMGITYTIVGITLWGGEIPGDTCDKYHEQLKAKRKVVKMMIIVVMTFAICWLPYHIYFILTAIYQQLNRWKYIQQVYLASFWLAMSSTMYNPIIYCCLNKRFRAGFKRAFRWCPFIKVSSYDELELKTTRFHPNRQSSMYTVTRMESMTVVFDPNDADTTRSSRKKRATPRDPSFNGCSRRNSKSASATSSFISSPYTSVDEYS
method: Signal transduction (ST), intracellular Ca++ (FLIPR), NK3
Type: cell-based
particulars: antagonist, read-out: NK3 pIC50 (converted)
recorded-endpoint: IC50 (µM)

Recorded results for 6 molecules are shown here.
>  <molecule>
O=C1CC2(CCN1Cc1ccccc1F)CCN([C@H]1CCN(C(=O)c3cc(C(F)(F)F)cc(C(F)(F)F)c3)[C@H](Cc3ccccc3)C1)CC2

>  <unit-abbreviation>
µM

>  <IC50>
7.24

$$$$
>  <molecule>
O=C(c1ccsc1)N1CCC2(CC1)CCN([C@H]1CCN(C(=O)c3cc(C(F)(F)F)cc(C(F)(F)F)c3)[C@H](Cc3ccc(Cl)c(Cl)c3)C1)CC2

>  <unit-abbreviation>
µM

>  <IC50>
4.9

$$$$
>  <molecule>
O=C(c1cnc2ccccc2n1)N1CCC2(CC1)CCN([C@H]1CCN(C(=O)c3cc(C(F)(F)F)cc(C(F)(F)F)c3)[C@H](Cc3ccccc3)C1)CC2

>  <unit-abbreviation>
µM

>  <IC50>
6.92

$$$$
>  <molecule>
O=C(c1ccsc1)N1CCC2(CC1)CCN([C@H]1CCN(C(=O)c3cc(C(F)(F)F)cc(C(F)(F)F)c3)[C@H](Cc3ccc(F)c(F)c3)C1)CC2

>  <unit-abbreviation>
µM

>  <IC50>
7.08

$$$$
>  <molecule>
CC(C)(C)CC(=O)N1CCC2(CC1)CCN([C@H]1CCN(C(=O)c3cc(C(F)(F)F)cc(C(F)(F)F)c3)[C@H](Cc3ccccc3)C1)CC2

>  <unit-abbreviation>
µM

>  <IC50>
6.61

$$$$
>  <molecule>
Cc1cccc(S(=O)(=O)N2CCC3(CCN([C@H]4CCN(C(=O)c5cc(C(F)(F)F)cc(C(F)(F)F)c5)[C@H](Cc5ccccc5)C4)CC3)CC2)c1

>  <unit-abbreviation>
µM

>  <IC50>
1.95

$$$$

1. O=C1CC2(CCN1CC1CC1)CCN(C1CCN(C(=O)c3cc(C(F)(F)F)cc(C(F)(F)F)c3)C(Cc3ccccc3)C1)CC2 (stereo not shown)
2. Cc1noc(C)c1S(=O)(=O)N1CCC2(CCN([C@H]3CCN(C(=O)c4cc(C(F)(F)F)cc(C(F)(F)F)c4)[C@H](Cc4ccccc4)C3)CC2)CC1
3. O=C(C1CCOC1)N1CCC2(CC1)CCN([C@H]1CCN(C(=O)c3cc(C(F)(F)F)cc(C(F)(F)F)c3)[C@H](Cc3ccccc3)C1)CC2 (stereo partly shown)
Arrange these 3 molecules in increasing order of IC50. Please list the labels according to the requested order.
1, 3, 2

* * *

experimental-system: NK2 (Homo sapiens, UniProt P21452)
Sequence (P21452 1-398): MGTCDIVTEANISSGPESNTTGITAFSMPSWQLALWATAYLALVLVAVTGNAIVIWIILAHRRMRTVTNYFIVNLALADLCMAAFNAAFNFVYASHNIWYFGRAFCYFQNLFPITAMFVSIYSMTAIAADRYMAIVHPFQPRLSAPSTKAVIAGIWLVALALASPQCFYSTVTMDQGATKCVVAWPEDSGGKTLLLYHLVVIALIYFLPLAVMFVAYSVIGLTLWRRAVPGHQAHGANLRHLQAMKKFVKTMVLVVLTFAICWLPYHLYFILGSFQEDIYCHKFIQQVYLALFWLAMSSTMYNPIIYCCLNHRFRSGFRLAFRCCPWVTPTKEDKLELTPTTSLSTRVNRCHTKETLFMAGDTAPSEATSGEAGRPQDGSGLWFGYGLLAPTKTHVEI
method: Signal transduction (ST), intracellular Ca++ (FLIPR), NK2
Format: cell-based
particulars: antagonist, read-out: NK2 pIC50 (converted)
recorded-endpoint: IC50 (µM)

Recorded results for 5 compounds are shown here.
>  <compound>
O=C(c1ccccc1Cl)N1CCC2(CC1)CCN([C@H]1CCN(C(=O)c3cc(C(F)(F)F)cc(C(F)(F)F)c3)[C@H](Cc3ccccc3)C1)CC2

>  <IC50, µM>
8.91

$$$$
>  <compound>
Cc1ccccc1S(=O)(=O)N1CCC2(CCN([C@H]3CCN(C(=O)c4cc(C(F)(F)F)cc(C(F)(F)F)c4)[C@H](Cc4ccccc4)C3)CC2)CC1

>  <IC50, µM>
2.51

$$$$
>  <compound>
O=C(c1ccc2nonc2c1)N1CCC2(CC1)CCN([C@H]1CCN(C(=O)c3cc(C(F)(F)F)cc(C(F)(F)F)c3)[C@H](Cc3ccccc3)C1)CC2

>  <IC50, µM>
5.62

$$$$
>  <compound>
O=C(c1cccnc1)N1CCC2(CC1)CCN([C@H]1CCN(C(=O)c3cc(C(F)(F)F)cc(C(F)(F)F)c3)[C@H](Cc3ccccc3)C1)CC2

>  <IC50, µM>
2.63

$$$$
>  <compound>
Cn1cnc(C(=O)N2CCC3(CC2)CCN([C@H]2CCN(C(=O)c4cc(C(F)(F)F)cc(C(F)(F)F)c4)[C@H](Cc4ccccc4)C2)CC3)c1

>  <IC50, µM>
6.17

$$$$

A. O=C(c1cc(C(F)(F)F)cc(C(F)(F)F)c1)N1CC[C@H](N2CCC3(CC2)CCN(S(=O)(=O)C=Cc2ccccc2)CC3)C[C@H]1Cc1ccccc1
B. Cc1ccc(S(=O)(=O)N2CCC3(CCN([C@H]4CCN(C(=O)c5cc(C(F)(F)F)cc(C(F)(F)F)c5)[C@H](Cc5ccccc5)C4)CC3)CC2)cc1
C. CC1(C(=O)N2CCC3(CC2)CCN([C@H]2CCN(C(=O)c4cc(C(F)(F)F)cc(C(F)(F)F)c4)[C@H](Cc4ccccc4)C2)CC3)CCCCC1
Order the items by recorded IC50; the first position goes to the largest value. Please list the labels according to the requested order.
C, A, B
(C: 8.13 µM, A: 5.37 µM, B: 2.45 µM)
